Parameter pIC50: see the listing below.
Subject Of Test: Human PD-L1/PD-1 (Homo sapiens, UniProt Q9NZQ7)
Construct: made in house; host or cells: HEK293T
Sequence (Q9NZQ7 with tags, fused parts or gaps): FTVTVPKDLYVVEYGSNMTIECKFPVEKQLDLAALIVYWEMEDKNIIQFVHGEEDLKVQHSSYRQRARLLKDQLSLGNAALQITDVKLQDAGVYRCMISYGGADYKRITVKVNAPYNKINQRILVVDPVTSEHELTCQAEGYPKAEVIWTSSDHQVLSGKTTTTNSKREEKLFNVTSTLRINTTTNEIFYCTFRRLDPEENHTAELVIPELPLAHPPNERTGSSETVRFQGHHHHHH
Protocol Notes: HTRF PD-1-Ig/PD-L1-His binding assay (human PD-L1)
Measurement Context: cluster symbol; read-out: HTRF IC50 cluster
pIC50: −log10 of the molar value. Positions of bridges follow the written chain, without caps; N, C: chain ends. Non-standard residues stand in square brackets, D forms with d. Residues, ends and D or L forms follow the SMILES beside them. ξ: configuration not given here. Tyr(3,5-Br2) = N[C@@H](Cc1cc(Br)c(O)c(Br)c1)C(=O)O; Hyp = O=C(O)[C@@H]1C[C@@H](O)CN1; NMeF = CN[C@@H](Cc1ccccc1)C(=O)O; NMeNle = CCCC[C@H](NC)C(=O)O; NMeM = CN[C@@H](CCSC)C(=O)O; NMeS = CN[C@@H](CO)C(=O)O; NMeA = CN[C@@H](C)C(=O)O; Dap = NC[C@H](N)C(=O)O; ξC = NC(CS)C(=O)O; Sar = CNCC(=O)O
Recorded Metric: pIC50

>>> meas_value("CCCC[C@H]1C(=O)N(C)[C@@H](CCCC)C(=O)N[C@@H](CCCNC(=N)N)C(=O)N[C@H](C(=O)NCC(N)=O)CSCC(=O)N[C@@H](Cc2ccc(O)cc2)C(=O)N(C)[C@@H](C)C(=O)N[C@@H](CC(N)=O)C(=O)N2CCC[C@H]2C(=O)N[C@@H](Cc2cnc[nH]2)C(=O)N[C@@H](CC(C)C)C(=O)N2C[C@H](O)C[C@H]2C(=O)N[C@@H](Cc2c[nH]c3ccccc23)C(=O)N[C@@H](CO)C(=O)N[C@@H](Cc2c[nH]c3ccccc23)C(=O)N1C")
"7.52 to 8.17"
>>> meas_value("CCCC[C@H]1C(=O)N(C)CC(=O)N[C@@H](CC(=O)O)C(=O)N[C@@H](C(C)C)C(=O)N(C)[C@@H](Cc2ccccc2)C(=O)N[C@@H](Cc2cc(Br)c(O)c(Br)c2)C(=O)N(C)CC(=O)N[C@@H](Cc2c[nH]c3ccccc23)C(=O)N[C@@H](Cc2ccc(O)cc2)C(=O)N[C@@H](CC(C)C)C(=O)N[C@H](C(=O)NCC(N)=O)CSCC(=O)N[C@@H](Cc2ccccc2)C(=O)N(C)[C@@H](Cc2ccccc2)C(=O)N1C [Example 3113] ({CH2CO}-F[NMeF][NMeNle][Sar]DV[NMeF][Tyr(3,5-Br2)][Sar]WYLCG-NH2; thioether N-13)")
"7.52 to 8.17"
>>> meas_value("CCCC[C@H]1C(=O)N(C)[C@@H](CCCC)C(=O)N[C@@H](CCCNC(=N)N)C(=O)N[C@H](C(=O)NCC(N)=O)CSCC(=O)N[C@@H](Cc2ccccc2)C(=O)N(C)[C@@H](C)C(=O)N[C@@H](CC(N)=O)C(=O)N2CCC[C@H]2C(=O)N[C@@H](Cc2cnc[nH]2)C(=O)N[C@@H](CC(C)C)C(=O)N(C)CC(=O)N[C@@H](Cc2c[nH]c3ccccc23)C(=O)N(C)[C@@H](CO)C(=O)N[C@@H](Cc2c[nH]c3ccccc23)C(=O)N1C [Example 1078] ({CH2CO}-F[NMeA]NPHL[Sar]W[NMeS]W[NMeNle][NMeNle]RCG-NH2; thioether N-14)")
"< 7.52"
>>> meas_value("CCCC[C@H]1C(=O)N(C)[C@@H](CCSC)C(=O)N[C@@H](CCCNC(=N)N)C(=O)NC(C(=O)NCC(N)=O)CSCC(=O)N[C@@H](Cc2ccc(O)cc2)C(=O)N(C)[C@@H](C)C(=O)N[C@@H](CC(N)=O)C(=O)N2CCC[C@H]2C(=O)N[C@@H](CN)C(=O)N[C@@H](CC(C)C)C(=O)N2C[C@H](O)C[C@H]2C(=O)N[C@@H](Cc2c[nH]c3ccccc23)C(=O)N[C@@H](CO)C(=O)N[C@@H](Cc2c[nH]c3ccccc23)C(=O)N1C (stereo partly shown) [Example 9083] ({CH2CO}-Y[NMeA]NP[Dap]L[Hyp]WSW[NMeNle][NMeM]R[ξC]G-NH2; thioether N-14)")
"7.52 to 8.17"
